- target: T1, SIRT2 catalytic domain (SIRT2^cat), amino acids 34–356 (human, UniProt Q8IXJ6-1 34-356)
- T1 chain: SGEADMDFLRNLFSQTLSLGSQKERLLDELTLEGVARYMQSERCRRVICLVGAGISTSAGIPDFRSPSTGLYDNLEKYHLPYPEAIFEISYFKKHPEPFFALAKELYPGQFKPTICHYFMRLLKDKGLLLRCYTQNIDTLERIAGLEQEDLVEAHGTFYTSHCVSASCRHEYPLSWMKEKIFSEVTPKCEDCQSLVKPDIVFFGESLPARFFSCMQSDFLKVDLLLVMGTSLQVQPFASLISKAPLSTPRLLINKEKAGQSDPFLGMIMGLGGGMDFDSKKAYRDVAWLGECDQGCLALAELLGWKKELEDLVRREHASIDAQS
pKd: −log10 of the molar value. Primed or numbered codes have the meaning given here. Where no end group is shown, it is not given here. The star is where a group is joined. Myristoyl = CCCCCCCCCCCCCC(=O)*; PEG4′ = PEG4 linker
quantity name: pKd

{"columns": ["binder", "quantity name", "reported value"],
 "data": [
  ["{FAM-PEG4′}-KGLGKGGAK(Myristoyl)RHRK-OH [FAM-myristoyl-H4K16 peptide]", "pKd", 5.70],
  ["KGLGKGGAK(Myristoyl)RHRK (also called myristoyl peptide; myristoylated peptide; source: synthetic peptide (New England Peptide)) [myristoyl-H4K16 peptide (13mer)]", "pKd", 6.00]
]}
